Quick note: these are IC50 numbers for system: PIK3CD (Human)

Name the reported IC50 value associated with the compound `CN(Cc1cc2nc(-c3cccc4[nH]ncc34)nc(N3CCOCC3)c2s1)C(=O)c1ccccc1` > 100 nM

`O=C(O)c1cccc(-c2cc3nc(-c4cccc5[nH]ncc45)nc(N4CCOCC4)c3s2)c1` , same question. > 100 nM

`O=C(NOCC1CC1)c1cc2nc(-c3cccc4[nH]ncc34)nc(N3CCOCC3)c2s1` , same question. > 100 nM

`Nc1nc(-c2cc3nc(-c4cnc5[nH]ccc5c4)nc(N4CCOCC4)c3s2)cs1` , same question. < 100 nM

`CC(=O)Nc1cccc(-c2cc3nc(-c4cccc5[nH]ncc45)nc(N4CCOCC4)c3s2)c1` , same question. > 100 nM

`CC(C)(NC(=O)c1ccccc1)c1cc2nc(-c3cccc4[nH]ncc34)nc(N3CCOCC3)c2s1` , same question. > 100 nM
